Each record here notes measured Activity.
Test system: L02
Assay Procedure: Inhibition of cellular glucose output in dexamethasone-induced insulin resistant human L02 cells assessed as insulin-stimulated glucose uptake at 10 uM preincubated for 24 hrs followed by insulin stimulation measured after 24 hrs by glucose oxidase method (reference value: 4.5 +/- 0.7%)
Assay type: functional
Set-up: scale not given: the % may be the effect or the level left

COc1cc(/C=C/C(=O)OCCCO[N+](=O)[O-])ccc1OC(=O)OCN1C(=O)SC(Cc2ccc(OCCN(C)c3ccccn3)cc2)C1=O (stereo unspecified) ... 9.6%
COc1cc(/C=C/C(=O)OCCCCCCO[N+](=O)[O-])ccc1OC(=O)OCN1C(=O)SC(Cc2ccc(OCCN(C)c3ccccn3)cc2)C1=O (stereo unspecified) ... 8%
COc1cc(/C=C/C(=O)OCCCO[N+](=O)[O-])ccc1OC(=O)CCC(=O)OCN1C(=O)SC(Cc2ccc(OCCN(C)c3ccccn3)cc2)C1=O (stereo unspecified) ... 10%
COc1cc(/C=C/C(=O)OCCCCO[N+](=O)[O-])ccc1OC(=O)CCC(=O)OCN1C(=O)SC(Cc2ccc(OCCN(C)c3ccccn3)cc2)C1=O (stereo unspecified) ... 7.8%
COc1cc(/C=C/C(=O)OCN2C(=O)SC(Cc3ccc(OCCN(C)c4ccccn4)cc3)C2=O)ccc1OCCCCCO[N+](=O)[O-] (stereo unspecified) ... 7.1%

Lab note: next compound to report on.
response.value for COc1cc(/C=C/C(=O)OCCCCCCO[N+](=O)[O-])ccc1OC(=O)CCC(=O)OCN1C(=O)SC(Cc2ccc(OCCN(C)c3ccccn3)cc2)C1=O (stereo unspecified) (field: Activity) = 6.8%

----------
Assay Procedure: Metabolic stability in simulated intestinal fluid at pH 6.8 measured immediately after compound addition by HPLC analysis
Assay type: ADME
Condition Context: read-out: Stability
Measured Endpoint: remaining at 0 h
Write the numeric value and append its unit.

response.value for CCN(CC)/[N+]([O-])=N/OCOC(=O)/C=C/c1ccc(OC(=O)OCN2C(=O)SC(Cc3ccc(OCCN(C)c4ccccn4)cc3)C2=O)c(OC)c1 (stereo unspecified) (field: remaining at 0 h) = 100%

----------
Assay Procedure: Metabolic stability in human liver microsomes measured immediately after compound addition in presence of NADPH by HPLC analysis
Format: ADME, Microsome
Condition Context: read-out: Stability
Measured Endpoint: remaining at 0 h (%)
# value in %; strip the unit string

response.value for CCN(CC)/[N+]([O-])=N/OCOC(=O)/C=C/c1ccc(OC(=O)OCN2C(=O)SC(Cc3ccc(OCCN(C)c4ccccn4)cc3)C2=O)c(OC)c1 (stereo unspecified) (field: remaining at 0 h) = 100

----------
Assay Procedure: Metabolic stability in simulated gastric fluid at pH 1.5 measured immediately after compound addition by HPLC analysis
Type: ADME
Condition Context: read-out: Stability
Measured Endpoint: remaining at 0 h (%)
# value in %; strip the unit string

response.value for CCN(CC)/[N+]([O-])=N/OCOC(=O)/C=C/c1ccc(OC(=O)OCN2C(=O)SC(Cc3ccc(OCCN(C)c4ccccn4)cc3)C2=O)c(OC)c1 (stereo unspecified) (field: remaining at 0 h) = 100

----------
Test system: 3T3-L1
Assay Procedure: Induction of insulin-stimulated 2-NBDG uptake in TNF-alpha-induced insulin resistant mouse 3T3L1 cells preincubated for 48 hrs followed by 2-NBDG addition measured after 30 mins in presence of insulin by fluorescence assay
Type: functional, cell-based
Each record here notes measured pEC50.
Schema: pEC50 number; meaning minus log10 of the concentration expressed in molar units.

The compound CN(CCOc1ccc(CC2SC(=O)NC2=O)cc1)c1ccccn1 (configuration not stated) [ROSIGLITAZONE] on 3T3-L1: pEC50 was 5.76

The compound CCN(CC)/[N+]([O-])=N/OCOC(=O)/C=C/c1ccc(OC(=O)OCN2C(=O)SC(Cc3ccc(OCCN(C)c4ccccn4)cc3)C2=O)c(OC)c1 (configuration not stated) on 3T3-L1: pEC50 was 5.97
